Test system: 628569-122-R-J1-PDC complex spheroid viability;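 also: spheroids exposed to agents for seven days before readout; 100% = DMSO vehicle control viability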
Assay: Anticancer human tumor 628569-122-R-J1-PDC patient-derived head and neck squamous carcinoma cell line growth inhibition [CLK]
Settings: second compound 10 µM; first compound 3.16 µM; active compounds read low
Excerpt: A high-throughput screen of multi-cell type tumor spheroids was designed to identify active combinations of […] and targeted small molecules. Complex spheroids include a stromal component modeled by human endothelial cells (HUVEC) and fibroblasts modeled by human mesenchymal stem cells (MSCs). […] Compounds. […] If the clinical Cmax for an agent had not been determined, the highest concentration tested was 10 microM. […]
test readout: viability, T/C (%)
Report the figure in % without appending any unit label.

Example molecules with recorded viability, T/C:
[[record]]
molecule = "CC(Nc1ccc2c(c1)OCCn1cc(N3C(=O)OCC3C(F)F)nc1-2)C(N)=O (stereo not drawn) + CNC(=O)c1ccc(Nc2nc(OC3CCCC3)c3c(-c4ccc5nc(C)oc5c4)c[nH]c3n2)c(OC)c1"
recorded_measurement = 23.2

[[record]]
molecule = "O=c1[nH]cc(F)c(=O)[nH]1 + CNC(=O)c1ccc(Nc2nc(OC3CCCC3)c3c(-c4ccc5nc(C)oc5c4)c[nH]c3n2)c(OC)c1"
recorded_measurement = 47.5


We next turn to a different molecule, shown below.
Q: // viability, T/C lookup, key: C#Cc1c(F)ccc2cc(O)cc(-c3ncc4c(N5CC6CCC(C5)N6)nc(OCC56CCCN5CC(F)C6)nc4c3F)c12 (stereo not drawn) + CN1CCN(c2cc(C(=O)Nc3cc4cc(-c5cnn(C)c5)ccc4cn3)ccn2)CC1
Result: 5.23

Values were extracted from PubChem BioAssay AID2060611.
